Biological target: L. monocytogenes AgrC (Listeria monocytogenes serovar 1/2a)
Sequence (Q8YAR5 entry or part of it): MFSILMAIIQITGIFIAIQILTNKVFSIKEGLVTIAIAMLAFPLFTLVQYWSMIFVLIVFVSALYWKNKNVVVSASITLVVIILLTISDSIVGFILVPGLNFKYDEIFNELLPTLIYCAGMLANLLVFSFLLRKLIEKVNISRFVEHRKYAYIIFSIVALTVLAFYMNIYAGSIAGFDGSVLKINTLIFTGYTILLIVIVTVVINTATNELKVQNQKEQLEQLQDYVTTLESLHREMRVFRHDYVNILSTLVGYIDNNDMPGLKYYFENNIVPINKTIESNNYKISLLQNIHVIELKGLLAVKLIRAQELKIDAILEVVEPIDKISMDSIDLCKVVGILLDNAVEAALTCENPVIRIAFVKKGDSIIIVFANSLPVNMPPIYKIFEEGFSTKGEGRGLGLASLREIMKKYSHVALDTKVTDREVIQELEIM
Assay: Fluorescence (agr-GFP) reporter agonism assay, ΔagrD reporter strain
Assay type: cell-based
Conditions: read-out: Max Activation
Procedure: Construction of Listeria agr Reporter Strains. […] Fluorescence reporter assay protocol. […] Fluorescence of GFP (excitation at 500 nm, emission at 540 nm) and OD600 of each well was measured using BioTek Synergy 2 plate reader. Measurements were processed by subtracting background fluorescence (BHI media), correcting by OD600, and the normalizing using the 1 μM AIP or the DMSO control for the agonism and antagonism assays, respectively. […]
Where a SMILES comes first, the peptide text is derived from it. Bridges are numbered along the chain shown (N, C = ends).
Emax listing for selected compounds.
measuredQuantity: Emax (%)

>  <compound>
CSCC[C@@H]1NC(=O)[C@H](Cc2ccccc2)NC(=O)[C@@H](N)CSC(=O)[C@H](C(C)C)NC(=O)[C@H](Cc2ccccc2)NC1=O [Compound 5-mer, (C-F-M-F-V)] (H-CFMFV; thioester 1-C)

>  <result>
110

$$$$
>  <compound>
CSCC[C@@H]1NC(=O)[C@H](Cc2ccccc2)NC(=O)[C@@H](NC(=O)[C@H](C)N)CSC(=O)[C@H](C)NC(=O)[C@H](Cc2ccccc2)NC1=O [AIP V6A, A-(C-F-M-F-A)] (H-ACFMFA; thioester 2-C; N-terminus assumed)

>  <result>
69

$$$$
>  <compound>
CSCC[C@@H]1NC(=O)[C@H](CO)NC(=O)[C@@H](NC(=O)[C@H](C)N)CSC(=O)[C@H](C)NC(=O)[C@H](Cc2ccccc2)NC1=O [L. grayi AIP, A-(C-S-M-F-A), reference compound] (H-ACSMFA; thioester 2-C; N-terminus assumed)

>  <result>
10.7

$$$$
>  <compound>
CSCC[C@H](NC(=O)[C@H](CO)NC(=O)[C@H](CO)NC(=O)[C@H](CC(=O)O)NC(=O)[C@H](C)NC(=O)[C@@H](N)C(C)C)C(=O)N[C@@H](CO)C(=O)N[C@@H](CCCCN)C(=O)N[C@@H](C)C(=O)N[C@H]1CSC(=O)[C@H](C(C)C)NC(=O)[C@H](Cc2ccccc2)NC(=O)[C@H](CCSC)NC(=O)[C@H](Cc2ccccc2)NC1=O [Compound 14-mcr, V-A-D-S-S-M-S-K-A-(C-F-M-F-V)] (H-VADSSMSKACFMFV; thioester 10-C; N-terminus assumed)

>  <result>
105

$$$$
>  <compound>
CC[C@H](C)[C@@H]1NC(=O)[C@H](Cc2ccccc2)NC(=O)[C@H](CC(=O)O)NC(=O)[C@@H](NC(=O)[C@@H](NC(=O)[C@H](CO)NC(=O)[C@@H](N)Cc2ccc(O)cc2)[C@@H](C)O)CSC(=O)[C@H](CCSC)NC1=O [Sa AIP-I, Y-S-T-(C-D-F-I-M), reference compound] (H-YSTCDFIM; thioester 4-C)

>  <result>
12.2

$$$$
>  <compound>
CSCC[C@@H]1NC(=O)[C@H](Cc2ccccc2)NC(=O)[C@@H](NC(=O)[C@H](C)NC(=O)[C@H](CCCCN)NC(=O)[C@H](CO)NC(=O)[C@@H](N)CCSC)CSC(=O)[C@H](C(C)C)NC(=O)[C@H](Cc2ccccc2)NC1=O [Compound 9-mer, M-S-K-A-(C-F-M-F-V)] (H-MSKACFMFV; thioester 5-C; N-terminus assumed)

>  <result>
93.6

$$$$
>  <compound>
CC[C@H](C)[C@H](N)C(=O)N[C@@H](CC(N)=O)C(=O)N[C@H]1CSC(=O)[C@H](CC(C)C)NC(=O)[C@H](CC(C)C)NC(=O)[C@H](Cc2ccccc2)NC(=O)[C@H](C)NC1=O [Sa AIP-III D4A, I-N-(C-A-F-L-L), reference compound] (H-INCAFLL; thioester 3-C)

>  <result>
12.3

$$$$
>  <compound>
CSCC[C@@H]1NC(=O)[C@H](Cc2ccccc2)NC(=O)[C@@H](NC(=O)[C@H](C)NC(=O)[C@H](CCCCN)NC(=O)[C@H](CO)NC(=O)[C@H](CCSC)NC(=O)[C@H](CO)NC(=O)[C@@H](N)CO)CSC(=O)[C@H](C(C)C)NC(=O)[C@H](Cc2ccccc2)NC1=O [Compound 11-mer, S-S-M-S-K-A-(C-F-M-F-V)] (H-SSMSKACFMFV; thioester 7-C; N-terminus assumed)

>  <result>
111

$$$$
>  <compound>
CC(C)C[C@@H]1NC(=O)[C@H](Cc2ccc(O)cc2)NC(=O)[C@H](CC(N)=O)NC(=O)[C@H](CO)NC(=O)[C@@H](NC(=O)[C@@H]2CCCN2C(=O)[C@H](CC(N)=O)NC(=O)[C@H](Cc2ccc(O)cc2)NC(=O)[C@H](CCCCN)NC(=O)[C@H](CO)NC(=O)[C@H](C)NC(=O)[C@@H](N)CC(N)=O)CSC1=O [Se AIP-II, N-A-S-K-Y-N-P-(C-S-N-Y-L), reference compound] (H-NASKYNPCSNYL; thioester 8-C)

>  <result>
8.45

$$$$
>  <compound>
CSCC[C@H](NC(=O)[C@H](CO)NC(=O)[C@H](CO)NC(=O)[C@H](CC(=O)O)NC(=O)[C@H](C)NC(=O)[C@@H](NC(=O)[C@@H](N)CCCCN)C(C)C)C(=O)N[C@@H](CO)C(=O)N[C@@H](CCCCN)C(=O)N[C@@H](C)C(=O)N[C@H]1CSC(=O)[C@H](C(C)C)NC(=O)[C@H](Cc2ccccc2)NC(=O)[C@H](CCSC)NC(=O)[C@H](Cc2ccccc2)NC1=O [Compound 15-mer, K-V-A-D-S-S-M-S-K-A-(C-F-M-F-V)] (H-KVADSSMSKACFMFV; thioester 11-C; N-terminus assumed)

>  <result>
122

$$$$
>  <compound>
CSCC[C@@H]1NC(=O)[C@H](Cc2ccccc2)NC(=O)[C@@H](NC(=O)[C@H](C)NC(=O)[C@@H](N)CCCCN)CSC(=O)[C@H](C(C)C)NC(=O)[C@H](Cc2ccccc2)NC1=O [Compound 7-mer, K-A-(C-F-M-F-V)] (H-KACFMFV; thioester 3-C; N-terminus assumed)

>  <result>
64.6

$$$$
